System: Mus musculus
Experiment: Analgesic activity in fasted male mice in phenylquinone writhing assay 5 min after i.c.v. administration.
Type: functional
Non-standard residues stand in square brackets, D forms with d. Residues, ends and D or L forms follow the SMILES beside them. *: point of attachment. Adamantane1carbonyl = O=C(C12CC3CC(CC(C3)C1)C2)*; Benzoyl(4-Ph) = O=C(c1ccc(-c2ccccc2)cc1)*; Nicotinoyl = O=C(c1cccnc1)*; Orn = NCCC[C@H](N)C(=O)O; Piv = CC(C)(C)C(=O)*
READOUT: ED50 (ug mouse-1)

- CC[C@H](C)[C@H](NC(=O)[C@H](Cc1ccc(O)cc1)NC(=O)[C@@H]1CCCN1C(=O)[C@@H](N)CCCN)C(=O)N[C@@H](CC(C)C)C(=O)O (H-[Orn]PYIL-OH): 23
- CC[C@H](C)[C@H](NC(=O)[C@H](Cc1ccc(O)cc1)NC(=O)[C@@H]1CCCN1C(=O)[C@H](CCCCN)NC(=O)C12CC3CC(CC(C3)C1)C2)C(=O)N[C@@H](CC(C)C)C(=O)O (Adamantane1carbonyl-KPYIL-OH): 0.15
- CC[C@H](C)[C@H](NC(=O)[C@H](Cc1ccc(O)cc1)NC(=O)[C@@H]1CCCN1C(=O)[C@H](CCCCN)NC(=O)C(C)(C)C)C(=O)N[C@@H](CC(C)C)C(=O)O (Piv-KPYIL-OH): 0.28
- CC[C@H](C)[C@H](NC(=O)[C@H](Cc1ccc(O)cc1)NC(=O)[C@@H]1CCCN1C(=O)[C@H](CCCCN)NC(=O)c1ccc(-c2ccccc2)cc1)C(=O)N[C@@H](CC(C)C)C(=O)O ({Benzoyl(4-Ph)}-KPYIL-OH): 1.7
- CC[C@H](C)[C@H](NC(=O)[C@H](Cc1ccc(O)cc1)NC(=O)[C@@H]1CCCN1C(=O)[C@H](CCCCN)NC(=O)c1cccnc1)C(=O)N[C@@H](CC(C)C)C(=O)O (Nicotinoyl-KPYIL-OH): 0.0016

====

Dear all, this message contains Ki results, target or system Neurotensin receptor type 1 (Rattus norvegicus, UniProt P20789).
Non-standard residues stand in square brackets, D forms with d. Residues, ends and D or L forms follow the SMILES beside them. *: point of attachment. Adamantane1carbonyl = O=C(C12CC3CC(CC(C3)C1)C2)*; X3 = O=C1NC2CSC(CCCCC(=O)*)C2N1; Orn = NCCC[C@H](N)C(=O)O; Bz = O=C(c1ccccc1)*
READOUT: Ki (nM)

* CC[C@H](C)[C@H](NC(=O)[C@H](Cc1ccc(O)cc1)NC(=O)[C@@H]1CCCN1C(=O)[C@H](CCCN)NC(=O)C12CC3CC(CC(C3)C1)C2)C(=O)N[C@@H](CC(C)C)C(=O)O (Adamantane1carbonyl-[Orn]PYIL-OH) | 180
* CC[C@H](C)[C@H](NC(=O)[C@H](Cc1ccc(O)cc1)NC(=O)[C@@H]1CCCN1C(=O)[C@H](CCCCN)NC(=O)CCCCC1SCC2NC(=O)NC21)C(=O)N[C@@H](CC(C)C)C(=O)O (stereo partly drawn) (X3-KPYIL-OH) | 290
* CC[C@H](C)[C@H](NC(=O)[C@H](Cc1ccc(O)cc1)NC(=O)[C@@H]1CCCN1C(=O)[C@H](CCCCN)NC(=O)c1ccccc1)C(=O)N[C@@H](CC(C)C)C(=O)O (Bz-KPYIL-OH) | 100
